For each entry below, report its self-cleavage kobs at 40 uM GlcN6P value.
B1: glmS ribozyme (parent)
chain: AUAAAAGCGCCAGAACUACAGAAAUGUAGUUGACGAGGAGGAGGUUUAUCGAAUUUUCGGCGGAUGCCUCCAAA

Variants of: B1
ASSAY_INFO: self-cleavage kobs at 40 uM GlcN6P; higher = faster cleavage; RNA array
CONDITION_SET: with glucosamine-6-phosphate
Variants at the floor of the assay were thinned out.

Task: What measured self-cleavage kobs at 40 uM GlcN6P goes with U30G U31G ?
Result: 0.00149 s⁻¹

Task: What measured self-cleavage kobs at 40 uM GlcN6P goes with G7U C50G ?
Result: 0.000281 s⁻¹

Task: What measured self-cleavage kobs at 40 uM GlcN6P goes with A6C U45C G63A ?
Result: < 1e-05 s⁻¹

Task: What measured self-cleavage kobs at 40 uM GlcN6P goes with U46C U55A ?
Result: 9.7e-05 s⁻¹

Task: What measured self-cleavage kobs at 40 uM GlcN6P goes with C11G G41C ?
Result: < 1e-05 s⁻¹

Task: What measured self-cleavage kobs at 40 uM GlcN6P goes with A36C A64U ?
Result: < 1e-05 s⁻¹

Task: What measured self-cleavage kobs at 40 uM GlcN6P goes with A12G G35U C50U ?
Result: < 1e-05 s⁻¹

Task: What measured self-cleavage kobs at 40 uM GlcN6P goes with A6C U56C ?
Result: < 1e-05 s⁻¹

Task: What measured self-cleavage kobs at 40 uM GlcN6P goes with A12G G38U A39U ?
Result: < 1e-05 s⁻¹

Task: What measured self-cleavage kobs at 40 uM GlcN6P goes with C11G U31C C34G U46A ?
Result: < 1e-05 s⁻¹

Task: What measured self-cleavage kobs at 40 uM GlcN6P goes with A39G C50G C58A ?
Result: 0.000142 s⁻¹

Task: What measured self-cleavage kobs at 40 uM GlcN6P goes with G13A G59U ?
Result: < 1e-05 s⁻¹

Task: What measured self-cleavage kobs at 40 uM GlcN6P goes with C8G U31A G41C ?
Result: < 1e-05 s⁻¹

Task: What measured self-cleavage kobs at 40 uM GlcN6P goes with U30A U47G ?
Result: 7.81e-05 s⁻¹

Task: What measured self-cleavage kobs at 40 uM GlcN6P goes with A14G C71G ?
Result: 0.00028 s⁻¹

Task: What measured self-cleavage kobs at 40 uM GlcN6P goes with C10A G32A U47A ?
Result: < 1e-05 s⁻¹

Task: What measured self-cleavage kobs at 40 uM GlcN6P goes with U46G A53G ?
Result: 0.000271 s⁻¹

Task: What measured self-cleavage kobs at 40 uM GlcN6P goes with G7U C16U G29C U54A ?
Result: < 1e-05 s⁻¹

Task: What measured self-cleavage kobs at 40 uM GlcN6P goes with A12U A36G A52U C71G ?
Result: < 1e-05 s⁻¹

Task: What measured self-cleavage kobs at 40 uM GlcN6P goes with A15C C16U ?
Result: 4.37e-05 s⁻¹

Task: What measured self-cleavage kobs at 40 uM GlcN6P goes with G40C A42C ?
Result: < 1e-05 s⁻¹

Task: What measured self-cleavage kobs at 40 uM GlcN6P goes with G37C U45G ?
Result: < 1e-05 s⁻¹
